This collection of values is drawn from patent US8802866B2.

Target: PI3Kalpha (Homo sapiens, UniProt P42336)
Sequence (P42336 whole entry): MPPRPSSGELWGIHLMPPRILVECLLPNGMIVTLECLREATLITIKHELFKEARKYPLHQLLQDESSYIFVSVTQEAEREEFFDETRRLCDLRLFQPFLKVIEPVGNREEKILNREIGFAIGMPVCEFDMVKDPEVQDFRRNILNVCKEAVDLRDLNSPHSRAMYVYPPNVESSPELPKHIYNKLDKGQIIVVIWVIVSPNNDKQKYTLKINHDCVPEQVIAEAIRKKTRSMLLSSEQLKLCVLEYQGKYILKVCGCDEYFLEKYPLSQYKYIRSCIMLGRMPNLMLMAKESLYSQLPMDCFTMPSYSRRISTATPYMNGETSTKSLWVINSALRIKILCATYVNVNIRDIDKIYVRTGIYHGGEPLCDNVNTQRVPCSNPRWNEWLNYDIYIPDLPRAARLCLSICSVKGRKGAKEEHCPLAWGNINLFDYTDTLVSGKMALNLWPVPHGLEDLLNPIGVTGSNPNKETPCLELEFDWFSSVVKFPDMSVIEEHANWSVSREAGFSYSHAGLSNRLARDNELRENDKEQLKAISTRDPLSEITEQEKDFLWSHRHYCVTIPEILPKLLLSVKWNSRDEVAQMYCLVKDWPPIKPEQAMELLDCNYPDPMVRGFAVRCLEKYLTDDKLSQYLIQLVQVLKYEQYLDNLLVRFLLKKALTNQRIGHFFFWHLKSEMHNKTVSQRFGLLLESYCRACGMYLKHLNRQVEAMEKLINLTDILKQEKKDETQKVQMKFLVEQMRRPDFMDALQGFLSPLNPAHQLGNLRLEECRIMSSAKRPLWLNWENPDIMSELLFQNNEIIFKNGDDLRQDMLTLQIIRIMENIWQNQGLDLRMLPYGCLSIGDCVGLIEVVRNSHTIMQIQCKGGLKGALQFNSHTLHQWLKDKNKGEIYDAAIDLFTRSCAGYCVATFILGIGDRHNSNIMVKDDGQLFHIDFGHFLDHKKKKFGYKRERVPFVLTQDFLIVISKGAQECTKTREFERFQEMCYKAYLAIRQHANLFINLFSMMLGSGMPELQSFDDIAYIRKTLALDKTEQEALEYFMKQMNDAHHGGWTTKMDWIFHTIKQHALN
Sequence (P27986 whole entry partner): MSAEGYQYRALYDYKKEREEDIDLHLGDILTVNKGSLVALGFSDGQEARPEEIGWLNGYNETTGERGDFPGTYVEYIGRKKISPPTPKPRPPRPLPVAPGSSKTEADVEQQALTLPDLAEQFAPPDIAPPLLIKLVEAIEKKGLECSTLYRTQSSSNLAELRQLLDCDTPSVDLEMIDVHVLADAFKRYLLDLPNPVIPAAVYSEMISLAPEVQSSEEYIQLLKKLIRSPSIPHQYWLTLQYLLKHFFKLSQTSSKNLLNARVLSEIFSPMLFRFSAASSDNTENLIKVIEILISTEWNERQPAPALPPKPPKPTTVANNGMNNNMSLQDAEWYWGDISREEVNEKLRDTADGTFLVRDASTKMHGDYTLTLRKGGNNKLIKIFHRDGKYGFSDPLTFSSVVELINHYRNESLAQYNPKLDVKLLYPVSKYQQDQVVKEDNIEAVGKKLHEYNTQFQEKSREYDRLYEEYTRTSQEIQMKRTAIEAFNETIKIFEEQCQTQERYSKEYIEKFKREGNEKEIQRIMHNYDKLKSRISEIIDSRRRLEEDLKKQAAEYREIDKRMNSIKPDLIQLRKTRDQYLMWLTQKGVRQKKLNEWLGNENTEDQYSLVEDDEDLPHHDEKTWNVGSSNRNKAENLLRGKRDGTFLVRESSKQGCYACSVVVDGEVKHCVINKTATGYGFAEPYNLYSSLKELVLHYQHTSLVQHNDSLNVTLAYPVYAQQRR
Assay: Biochemical PI3Kalpha assay (neomycin SPA, lipid phosphorylation)
Conditions: human recombinant GST-PI3K
pIC50: −log10 of the molar value.
// reported pIC50 for each item listed

Answered examples (4):
>>> value_reported("Cn1cc(-c2cc(-c3cnc4[nH]ccc4c3)ccn2)n(-c2ccccc2C#N)c1=O")
"< 5.00"
>>> value_reported("CN1CCN(c2ccc(-n3c(-c4cc(-c5cnc(N)c(C(F)(F)F)c5)ccn4)cn(C)c3=O)cc2C(F)(F)F)CC1")
"5.00 to 7.00"
>>> value_reported("Cn1cc(-c2cc(-c3cnc4c(ccn4C)c3)ccn2)n(-c2ccc(C(C)(C)C#N)cc2)c1=O")
"5.00 to 7.00"
>>> value_reported("Cn1cc(-c2cc(-c3cnc4ccccc4c3)ccn2)n(-c2ccc(C(C)(C)C(N)=O)cc2)c1=O")
"5.00 to 7.00"

Read the entry `Cn1cc(-c2cc(-c3cnc(N)c(C#N)n3)ccn2)n(-c2ccc(C(C)(C)C#N)cc2)c1=O` and write its reported pIC50. 5.00 to 7.00
